Values compiled from PubChem BioAssay AID624330.

Reported inhibition by item:
# SYSTEM NAME: Rac GTPase-activating protein 1 (Homo sapiens) (UniProt Q9H0H5)
# Sequence (Q9H0H5 whole entry, looked up): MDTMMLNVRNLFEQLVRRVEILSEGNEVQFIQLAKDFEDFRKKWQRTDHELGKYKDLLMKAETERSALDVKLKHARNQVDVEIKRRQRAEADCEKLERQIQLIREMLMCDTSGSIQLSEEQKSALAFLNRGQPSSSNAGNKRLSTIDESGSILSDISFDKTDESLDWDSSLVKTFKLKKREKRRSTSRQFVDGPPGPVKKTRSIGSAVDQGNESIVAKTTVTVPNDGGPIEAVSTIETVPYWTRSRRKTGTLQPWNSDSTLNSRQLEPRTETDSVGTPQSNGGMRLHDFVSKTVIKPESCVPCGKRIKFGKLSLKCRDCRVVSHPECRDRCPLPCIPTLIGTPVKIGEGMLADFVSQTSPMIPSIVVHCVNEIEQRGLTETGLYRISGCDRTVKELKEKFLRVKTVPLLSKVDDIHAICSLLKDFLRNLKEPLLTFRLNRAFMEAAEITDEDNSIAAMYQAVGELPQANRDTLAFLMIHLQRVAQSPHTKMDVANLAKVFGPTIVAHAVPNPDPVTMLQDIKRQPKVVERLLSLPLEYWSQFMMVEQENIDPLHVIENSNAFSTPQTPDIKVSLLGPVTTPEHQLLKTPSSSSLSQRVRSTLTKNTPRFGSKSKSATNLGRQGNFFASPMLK
# ASSAY COMMENT: blockers of MgcRacGAP-driven Rac1 GTP hydrolysis – biochemical, ADP Hunter fluorescence, primary and confirmatory, confirmation (AID 624330);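 further: fluorescence reports GDP produced by GAP-driven GTP hydrolysis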
# CONDITION PARAMETERS: MgcRacGAP-stimulated Rac1 GTP hydrolysis, at 30 µM, stronger effect = higher value, GST-tagged Rac1 F28L mutant substrate
Hit rate of the full screen: of about 340,000 compounds, about 2,100 (0.62%) were called active. The list is a sample of the results. Potency and affinity values are given separately.
RESULT TYPE: inhibition (%)

>>> assay_result("CCn1nc(C)c(/C=N/NC(=O)c2ccoc2C)c1C")
1.28
>>> assay_result("CN1/C(=C\\C=N\\NC(=O)c2cccnc2)C(C)(C)c2ccccc21")
4.5
>>> assay_result("CC(=O)N1c2ccc(S(=O)(=O)N3CCCCC3)cc2CC1C(=O)NCc1ccc(N(C)C)cc1 (stereo unspecified)")
3.76
>>> assay_result("CO/N=C/C=C1/N(C)c2ccccc2C1(C)C")
6.44
>>> assay_result("CC(C)C(=O)Nc1cc(S(=O)(=O)Nc2cccc(Cl)c2)ccc1Cl")
12.6
>>> assay_result("O=C(NC1CCCCC1)c1sc(=S)n2c1[nH]c(=O)c1ccccc12")
10.6
>>> assay_result("CCc1noc(C)c1C(=O)N1CCCC(N2CCN(c3cccc(Cl)c3)CC2)C1 (stereo unspecified)")
8.33
>>> assay_result("CCOc1cc(CNc2ccc(Br)cc2)cc(Br)c1OCC(=O)NC(C)(C)C")
-3.09
>>> assay_result("CCOc1cc(CNc2ccc3c(c2)OCCO3)cc(Br)c1OC")
23.8
>>> assay_result("Cc1ccccc1N=C/C=C1\\N(C)c2ccccc2C1(C)C")
4.55
>>> assay_result("CN1/C(=C\\C=N\\O)C(C)(C)c2ccccc21")
15.1

* * *

# SYSTEM NAME: Rac GTPase-activating protein 1 (Homo sapiens) (UniProt Q9H0H5)
# ASSAY COMMENT: blockers of MgcRacGAP-driven Rac1 GTP hydrolysis – biochemical, ADP Hunter fluorescence, primary and confirmatory, confirmation (AID 624330);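 further: fluorescence reports GDP produced by GAP-driven GTP hydrolysis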
# CONDITION PARAMETERS: MgcRacGAP-stimulated Rac1 GTP hydrolysis, at 30 µM, stronger effect = higher value, GST-tagged Rac1 F28L mutant substrate
Among all 340,000 compounds or so, about 2,100 (0.62%) were called active. A selection follows. Results with a measured potency or affinity are listed apart.
RESULT TYPE: inhibition (%)

>>> assay_result("CCOC(=O)C1CCN(Cc2cccc(Oc3ccc(Cl)cc3)c2)CC1")
21
>>> assay_result("CCOc1cc(/C=C2\\C(=N)N3N=C(S(C)(=O)=O)SC3=NC2=O)ccc1OCCOc1cccc(OC)c1")
12.1
>>> assay_result("COc1ccc(Cl)cc1NC(=O)C1Cc2cc(S(=O)(=O)N3CCCC3)ccc2N1C(C)=O (stereo unspecified)")
2.38
>>> assay_result("CCC(CC)CN1C(Nc2ccccc2)=NC[C@@H]1CC(C)C")
7.15
>>> assay_result("O=C(CNC(=O)c1ccccc1Br)N/N=C/c1ccccc1O")
5.07
>>> assay_result("CC1=CN2C(=N)/C(=C/c3ccco3)C(=O)N=C2S1")
5.23
>>> assay_result("CCOC(=O)C1CCN(Cc2cccc(OCc3ccccc3)c2)CC1")
19.5
>>> assay_result("C=CCOc1ccc(/C=C2\\C(=N)N3N=C(S(=O)(=O)CC)SC3=NC2=O)cc1OC")
-6.72
>>> assay_result("NC(=O)COC(=O)CCSc1ccc(Cl)cc1")
5.12
>>> assay_result("NS(=O)(=O)c1ccc(N/N=C/c2cn(-c3ccccc3)nc2-c2cccs2)cc1")
2.12
>>> assay_result("CCOC(=O)C1CCCN(Cc2ccc(-c3ccccc3)cc2)C1 (stereo unspecified)")
-2.6

* * *

# SYSTEM NAME: Rac GTPase-activating protein 1 (Homo sapiens) (UniProt Q9H0H5)
# ASSAY COMMENT: blockers of MgcRacGAP-driven Rac1 GTP hydrolysis – biochemical, ADP Hunter fluorescence, primary and confirmatory, confirmation (AID 624330);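 further: fluorescence reports GDP produced by GAP-driven GTP hydrolysis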
# CONDITION PARAMETERS: MgcRacGAP-stimulated Rac1 GTP hydrolysis, at 30 µM, stronger effect = higher value, GST-tagged Rac1 F28L mutant substrate
Hit rate of the full screen: of about 340,000 compounds, about 2,100 (0.62%) were called active. These entries were drawn from the full list. Entries with a potency or affinity are not part of this list.
Okay, here is how we bin by inhibition: range 1: < 5%; range 2: ≥ 5% and < 10%; range 3: ≥ 10%

>>> discrete_label("CCN(CC)S(=O)(=O)c1ccc(NC(=O)C(OC)c2ccccc2)cc1 (stereo unspecified)")
"range 3"
>>> discrete_label("CCOc1ccc(-c2nc3c(s2)CCc2onc(-c4ccc(OC)cc4)c2-3)cc1")
"range 1"
>>> discrete_label("CCOc1cc(N2CCOCC2)c(OCC)cc1NC(=O)c1cc(C)cc(C)c1")
"range 3"
>>> discrete_label("O=C(COc1ccccc1[N+](=O)[O-])N/N=C/c1ccncc1")
"range 1"
>>> discrete_label("Cc1ccc(N(C(=O)c2snc(C(N)=O)c2N)C(C(=O)NC2CCCC2)c2ccc(C)o2)cc1 (stereo unspecified)")
"range 1"
>>> discrete_label("COCc1cc(C)nc(OCC(=O)N/N=C/c2ccccc2)c1C#N")
"range 2"
>>> discrete_label("NC(=S)Cc1ccccc1Cl")
"range 2"
>>> discrete_label("COc1ccc(/C=N/NC(=O)COc2cccc3cccnc23)cc1OC")
"range 3"
>>> discrete_label("CCOc1cc(N2CCOCC2)c(OCC)cc1NC(=O)c1ccccc1")
"range 3"

* * *

# SYSTEM NAME: Rac GTPase-activating protein 1 (Homo sapiens)
# ASSAY COMMENT: blockers of MgcRacGAP-driven Rac1 GTP hydrolysis – biochemical, ADP Hunter fluorescence, primary and confirmatory, confirmation (AID 624330);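 further: fluorescence reports GDP produced by GAP-driven GTP hydrolysis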
# CONDITION PARAMETERS: MgcRacGAP-stimulated Rac1 GTP hydrolysis, at 30 µM, stronger effect = higher value, GST-tagged Rac1 F28L mutant substrate
The whole screen tested about 340,000 compounds, of which about 2,100 (0.62%) were called active. The list is a sample of the results. Entries with a potency or affinity are not part of this list.
Below, each of the compounds is paired with its reported inhibition value.
RESULT TYPE: inhibition (%)

>>> assay_result("Cc1cc(N/N=C/c2ccc(O)cc2O)nc(-c2ccccc2O)n1")
9.61
>>> assay_result("Oc1ccc(/C=N/Nc2cccc3cccnc23)c(O)c1")
0.03
>>> assay_result("COc1ccc(S(=O)(=O)NCc2cn3c(C)csc3n2)cc1F")
7.58
>>> assay_result("COc1ccc(/C=C/C(=O)c2ccc(O)cc2)cc1")
4.28
>>> assay_result("COc1ccc(N2CCN(C(=O)c3cc4c(s3)CCCCC4)CC2)cc1")
14.7
>>> assay_result("CC(=O)c1ccc(N2CCN(C(=O)c3ccc(-c4ccccc4)cc3)CC2)cc1")
6.62
>>> assay_result("N#CC(C#N)=C1C=CC=CN1/C(=C\\c1ccco1)C(=O)c1ccc(-c2ccccc2)cc1")
15.6
>>> assay_result("Cc1cc(C(=O)Nc2ccc(F)cc2F)on1")
9.92
>>> assay_result("COc1cccc(/C=N/Nc2cc(Cl)nc(C)n2)c1O")
-19.7
>>> assay_result("COc1ccc(C(=O)/C(=C\\c2ccco2)N2C=CC=CC2=C(C#N)C#N)cc1")
4.05
>>> assay_result("N#CC(C#N)=C1C=CC=CN1/C(=C\\c1ccco1)C(=O)c1ccccc1")
16.7

* * *

# SYSTEM NAME: Rac GTPase-activating protein 1 (Homo sapiens)
# ASSAY COMMENT: blockers of MgcRacGAP-driven Rac1 GTP hydrolysis – biochemical, ADP Hunter fluorescence, primary and confirmatory, confirmation (AID 624330);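 further: fluorescence reports GDP produced by GAP-driven GTP hydrolysis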
# CONDITION PARAMETERS: MgcRacGAP-stimulated Rac1 GTP hydrolysis, at 30 µM, stronger effect = higher value, GST-tagged Rac1 F28L mutant substrate
Out of some 340,000 compounds screened, about 2,100 (0.62%) were called active. These entries were drawn from the full list. Measured potencies and affinities stand elsewhere.
Each entry below lists one item and its recorded inhibition value.
RESULT TYPE: inhibition (%)

>>> assay_result("O=C(O)c1cccc(N2CCCC2=O)c1")
5.07
>>> assay_result("COC(=O)c1cccc(N2CCCC2=O)c1")
9.18
>>> assay_result("COc1ccccc1CNC(=O)CCSCc1cccc(Cl)c1")
-0.5
>>> assay_result("O=C(COC(=O)Cc1ccc(Br)cc1)NC1CC1")
4.98
>>> assay_result("Nc1ccc(CCc2ccc(N)cc2)cc1")
13.9
>>> assay_result("Cc1ccc(OCCCC(=O)N(C)CC(=O)Nc2ccccc2Cl)cc1")
2.87
>>> assay_result("CCOc1cccc(NC(=O)c2ccc(S(=O)(=O)N3CCCC3)cc2)c1")
3.15
>>> assay_result("CC(=O)Nc1ccc(S(=O)(=O)Nc2nccc(/C=C/c3ccc(Cl)cc3)n2)cc1")
-0.65
>>> assay_result("CC(=O)c1ccc(N=Nc2ccc(N)cc2)cc1")
0.6
>>> assay_result("COc1ccc(NC(=O)NCCc2cccc(Cl)c2)cc1OC")
11.4
>>> assay_result("Cc1cc(N(C)C)ccc1N=Nc1ccc2ncccc2c1")
3.61
>>> assay_result("Nc1ccc(Sc2ccc([N+](=O)[O-])cc2)cc1")
7.67
>>> assay_result("CCOC(=O)/C(=C/Nc1ccc(F)c(F)c1)[N+](=O)[O-]")
-8.37
